Reported protein stability index values for the following sequences.
# assay.method.text: protein stability index of a GFP-peptide fusion (yeast GPS) (PSI 1-4); higher = more stable; sorted into four equal gates, so the index is relative within each strain
# setup.conditions: san1∆
endpoint.name: protein stability index

| sequence.input | endpoint.name | numeric.readout |
| --- | --- | --- |
| LGAVAGLIPYPHHNQSP [RET1] | protein stability index | 2.69 |
| ERSICALGEFADWDPES [YML031W/NDC1] | protein stability index | 3.28 |
| IKSGVAKLESLLENSVD [MTW1] | protein stability index | 3.32 |
| DRDESSPYAAMLAAQDV [RPS14A] | protein stability index | 2.55 |
| SPIFEVLSDDAKKLSSF [ARP9] | protein stability index | 2.88 |
| HTSIRETLENGETRMKM [SMC2] | protein stability index | 2.85 |
| NIYNFSPSERIEPLEIN [BRR2] | protein stability index | 1.93 |
| TQAAEFLSPYISTHLKT [IRR1] | protein stability index | 2.03 |
| LKSTKHSISEAENMLEE [SMC4] | protein stability index | 3.06 |
| DSNSEILNFLNQEDLFE [YML103C/NUP188] | protein stability index | 2.76 |
| RRKKILNEIELDNLKLK [GRR1] | protein stability index | 2.76 |
| AHIAKNLINLSIGASIA [YCS4] | protein stability index | 1.94 |
| KPQLKFKSPIDNSESHP [RRP6] | protein stability index | 2.89 |
| QESFNSVQNLDQLLTDL [NUT1] | protein stability index | 3.04 |
| VHRDDPALVGKLRGDLR [SNF6] | protein stability index | 2.7 |
| NFEATKKSVLKQVQDFE [COR1] | protein stability index | 3.07 |
| QTAVTCESCSTILCTPT [RPS27A] | protein stability index | 1.91 |
| QREFKEIMEERNVEQKL [NNF1] | protein stability index | 2.79 |
| FNNQGKLDLFKYFTELS [MED1] | protein stability index | 2.92 |
| LTLTDSQLAQVAAFVNN [BRR2] | protein stability index | 2.37 |
| YKPLIEERMGQIENLNE [SMC4] | protein stability index | 3.46 |
| GDVKNMEDVKIQKEEEP [SWI3] | protein stability index | 3.43 |
| RVKAMEVDEKPTETYSD [RPT5] | protein stability index | 3.1 |
| FISYHDKYLCMLKTCVF [NUT1] | protein stability index | 3.03 |
| VMLKGIVTALLESDVNI [SRP54] | protein stability index | 1.18 |
| KRITQITIEPGVDVEVV [RPS20] | protein stability index | 2.81 |
| SDDYDNEGAASSNPQSA [SMC1] | protein stability index | 2.65 |
| SSSSDIIVPDLIELKSD [YML103C/NUP188] | protein stability index | 2.67 |
| EHWKVRNFKKANLVNKE [BRN1] | protein stability index | 1.54 |
| GASTGNANTGFSFGGTQ [YGL172W/NUP49] | protein stability index | 1.58 |

====

# assay.method.text: protein stability index of a GFP-peptide fusion (yeast GPS) (PSI 1-4); higher = more stable; sorted into four equal gates, so the index is relative within each strain
# setup.conditions: ubr1∆
endpoint.name: protein stability index

| sequence.input | result |
| --- | --- |
| GWKPYYKLFIWLVVPTI [YML031W/NDC1] | 1.16 |
| VVEPEHMADAKIMPKDI [SIR4] | 3.12 |
| IIRPILGKVRFANYKLL [SRB4] | 1.73 |
| SVINVSAQRDRRYRKRV [RPS17A] | 2.06 |
| SDIPVSENVFEGLTYKY [SSN3] | 1.98 |
| DKYKLYPVRIPRLDTSK [YJR042W/NUP85] | 3.24 |
| SQPNNTPSFSFGKTTAN [YLR335W/NUP2] | 2.87 |
| TVQNEILGDLGKEFGTT [FAS2] | 2.9 |
| HDEKLSDELHNQSTIYE [LIN1] | 2.77 |
| NGIPLKSKERSSQFVRL [YMR129W/POM152] | 2.85 |
| SPTINRANVYVGFLVQL [PRP8] | 2.1 |
| LESIQKTKEAVAALKAV [RPL4A] | 2.88 |
| DNNNGDDDDEDDDEIVM [SKP1] | 2.99 |
| IIRQLSELNEGNLSKRE [SRB8] | 3.42 |
| TDSDFAKYHAKLNKKLQ [SRP68] | 3 |
| LEYYAMLSKTKVYYFQG [RPL30] | 2.89 |
| NINEVKKASDLVDTPSN [NUT1] | 3.27 |
| ELDAQTLPGDDELDQEI [RPT5] | 3.59 |
| IIDEIKCIPKKGTVFQF [POP4] | 1.3 |
| GQEYPRIIGLSATLPNY [BRR2] | 1.81 |
| SSFEKFNDSQAIVCYIL [SRP72] | 2.63 |
| SNDFEEGSTIRYLAVTL [YMR129W/POM152] | 2.26 |
| DDYKDLTCSLYELYINK [IRR1] | 2.94 |
| KPLFDFGKTGDQKETKK [YOR098C/NUP1] | 3.34 |
| CSHCGCVYVPNFNASLQ [SNM1] | 1.51 |
| DQYLWYEADQRKLFPNW [PRP8] | 3.13 |
| VPPTIAQFQYTLDRNTA [RPL8A] | 1.68 |
| KNYPEYFLKVTFLKYFG [IRR1] | 1.49 |
| RDREPKEPVALIETVRQ [RPN2] | 3.34 |
| ASELANPYSSYVSQIRK [YAR002W/NUP60] | 1.92 |
| KPTSHKQLQQPKSSPLK [SIR4] | 2.95 |
| YPFLLSFLGEAKSMAFL [YML103C/NUP188] | 2.38 |
| NFYRPLLRSVLVLLELV [YML103C/NUP188] | 1.06 |
| QPQQSTIGGGLFGNKPT [YGR119C/NUP57] | 1.38 |
| QNFAEEDDSSNSCFSDG [REC8] | 3.33 |
| TELTHHLLPRNEWIKAQ [QCR7] | 1.85 |
| SKLGKNLQTVHFGHCFN [GRR1] | 2.25 |
| FTNRIPSKTPEVYMRYR [SWI3] | 2.03 |
| RKHHKKGITEEVAKKRS [RPL24A] | 3.02 |
| KISLRDICLKLNLDSEQ [RPN3] | 3.32 |
| GFNSIWKIPQNDIPQTE [SSN2] | 3.25 |
| FGTGKRLAKKVARRNAD [RPS24A] | 3.31 |
| IYRDRSTFTKHLIKCFF [ITC1] | 2.26 |
| VTAKLLGFTPGELRSYL [FAS1] | 3.1 |
| CAFLLTKIKDAEEDSLL [YJL039C/NUP192] | 3.35 |
| RNVEQKLNELDELILEA [NNF1] | 3.4 |
| GMVKLNEYPVADAVTKD [REC8] | 3.36 |
| IKPKPLWSGKQILSVAI [RPO21] | 1.62 |
| AGIKTRKFVFNPPKPRK [CYT1] | 3.07 |
| SSLMNGLGYVFEFQYLT [SRB5] | 3.19 |
| GFNMKKITTSTEDQKVT [SRP68] | 2.42 |
| FTCSCNSLTVDGNNANY [RPN14] | 2.75 |
| FGNKPAGSTGFSFGQNN [YGR119C/NUP57] | 1.29 |
| LMTFNAETKSYDSRGVG [YLR335W/NUP2] | 2.71 |
| IYKSIFNVVDVGVDQLS [YJL039C/NUP192] | 3.05 |
| HNHDTGCDENDSTVNKS [YDL088C/ASM4] | 3.05 |
| SELPDIYSRDIGAELKR [SNF2] | 3.41 |
| VIVTDPRLDAQAIKEAS [RPS0B] | 2.9 |
| PDKLLGVILMFAAILVL [COB] | 1.59 |

====

# assay.method.text: protein stability index of a GFP-peptide fusion (yeast GPS) (PSI 1-4); higher = more stable; sorted into four equal gates, so the index is relative within each strain
# setup.conditions: doa10∆

| sequence.input | protein stability index |
| --- | --- |
| RPFEGLFVISTEISPMA [RRP45] | 2.67 |
| IRNINVQDALLTNQLYK [SNF2] | 2.84 |
| STYLPKLISAFDDLEVE [RRP42] | 2.63 |
| KKQPSILVGGTLKDYQI [SNF2] | 2.31 |
| TTSRFSKQVTDYYQSIY [FAS2] | 2.77 |
| RCFSCGKVVGDKWESYL [RPB10] | 1.73 |
| SFEETVEILFEAGASAE [RPO21] | 2.7 |
| GNGLVDENKVEAFKSLY [YAR002W/NUP60] | 3.35 |
| WREQLRNRDIALFQPPN [ROX3] | 2.31 |
| DGWVKLTYKSELSKSRA [YMR153W/NUP53] | 1.85 |
| HLGKGTMTMDVFNDAHV [RPN1] | 2.96 |
| GQEYPRIIGLSATLPNY [BRR2] | 1.9 |
| EDHIFFKYIYELILAGA [YDL116W/NUP84] | 1.74 |
| CWAVRADVHFLDCDGGF [RRP45] | 2.31 |
| QQPQTNTAPGLGNTVST [YGR119C/NUP57] | 3.03 |
| SKRYIPSVNDFVIGVII [RRP40] | 2.4 |
| FPRTRFEAQIDSVEFIF [RPN10] | 2.61 |
| HCIDYLRKNKLGYARFI [SMC4] | 1.19 |
| TQPKATSTGTTIVGVKF [PUP1] | 3.48 |
| KGRYAPETGDHVVGRIA [RRP4] | 3.03 |
| YLNDLMITKRILEVGAL [RPN12] | 1.29 |
| YPFLLSFLGEAKSMAFL [YML103C/NUP188] | 2.18 |
| TPSNIRSLCEVLVYDDK [RPC34] | 1.7 |
| IIQLILWSIHPSRQFDH [SRB8] | 1.57 |
| RERDITSLFHKFILSGF [RRI2] | 1.71 |
| PKVKEIKTVVLVPQLGH [PRP8] | 1.93 |
| DRFIELISDQLLEFFEL [YML103C/NUP188] | 2.56 |
| QWSIEIVLLDDEGKEIP [TAF14] | 1.99 |
| ERHGYIRGIVKQIVHDS [RPL2A] | 1.6 |
| DIFGANAASGSNSNVTN [YOR098C/NUP1] | 2.11 |
